Entries and their Emax at 1 µM
- ASSAYED_SYSTEM: Human dopamine D4 receptor (Homo sapiens, UniProt P21917)
- Sequence (P21917 1-419): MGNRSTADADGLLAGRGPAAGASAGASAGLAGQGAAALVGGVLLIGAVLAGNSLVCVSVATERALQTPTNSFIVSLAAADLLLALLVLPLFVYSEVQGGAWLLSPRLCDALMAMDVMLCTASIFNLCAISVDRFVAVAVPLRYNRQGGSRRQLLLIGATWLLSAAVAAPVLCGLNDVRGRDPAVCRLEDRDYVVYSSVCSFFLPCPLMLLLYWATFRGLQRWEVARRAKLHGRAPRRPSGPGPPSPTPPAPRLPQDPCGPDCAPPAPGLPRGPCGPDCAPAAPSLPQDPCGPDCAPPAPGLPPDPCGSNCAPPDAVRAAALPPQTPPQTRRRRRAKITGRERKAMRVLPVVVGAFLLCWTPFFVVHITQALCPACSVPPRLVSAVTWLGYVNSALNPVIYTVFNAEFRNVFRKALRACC
- EXPERIMENT_NOTES: Agonistic/antagonistic activity in G protein dependent pathway (aequorin intracellular calcium luminescence), D4
- Format: cell-based
- Set-up: expressed in transfected cells; host or cells: CHO-K1 or HEK293 cells
- REPORTED_CONDITIONS: read-out: Maximal activity on each receptor (%): D4
Could you give me the number in %? Just the number is fine.

Prompt: Query: Emax at 1 µM; subject: `Cc1ncc(CN2CCC(c3cccnc3)CC2)c(N)n1`
Response: 63

More entries:
Prompt: Query: Emax at 1 µM; subject: `Cc1ncc(CN2CC=C(c3cc(Cl)ccn3)CC2)c(N)n1`
Response: 88

Prompt: What would you report for `Cc1ncc(CN2CCC(c3cccnc3)CC2)cn1` ?
Response: 68

Prompt: What would you report for `CCc1ncc(CN2CCC(c3cccnc3)CC2)c(N)n1` ?
Response: 81

Prompt: What would you report for `Cc1ncc(CN2CCC(c3ccccn3)CC2)c(N)n1` ?
Response: 74

Prompt: What would you report for Cc1ncc(CN2CCCC(c3cccnc3)CC2)c(N)n1 (stereo not shown) ?
Response: 92

Prompt: What would you report for `Nc1nc(C2CC2)ncc1CN1CCC(c2ccccn2)CC1` ?
Response: 64

Prompt: What would you report for `Nc1ncc(CN2CC=C(c3cccnc3)CC2)cn1` ?
Response: 86

Prompt: What would you report for `CCc1ncc(CN2CC=C(c3ccccn3)CC2)c(N)n1` ?
Response: 110

Prompt: What would you report for `CNc1nc(C)ncc1CN1CC=C(c2ccccn2)CC1` ?
Response: 71

Prompt: What would you report for `Nc1nc(C2CC2)ncc1CN1CCC(c2cccnc2)CC1` ?
Response: 54

Prompt: What would you report for `Cc1ncc(CN2CCC(c3cncc(F)c3)CC2)c(C)n1` ?
Response: 62

Prompt: What would you report for `Cc1ncc(CN2CCC(c3nccs3)CC2)c(N)n1` ?
Response: 51

Prompt: What would you report for Cc1ncc(CN2CCC(c3cccnc3)C(C)C2)c(N)n1 (stereo not shown) ?
Response: 59

Prompt: What would you report for `Cc1ncc(CN2CCC(c3cccnc3)CC2)c(C)n1` ?
Response: 35

Prompt: What would you report for `Cc1ncc(CN2CCC(c3nccc4ccccc34)CC2)c(N)n1` ?
Response: 62

Prompt: What would you report for Cc1ncc(CN2CCCC(c3ccccn3)CC2)c(N)n1 (stereo not shown) ?
Response: 71

Prompt: What would you report for `Nc1ncc(CN2CC=C(c3ccccn3)CC2)cn1` ?
Response: 93

Prompt: What would you report for `CC(C)c1ncc(CN2CCC(c3cccnc3)CC2)c(N)n1` ?
Response: 78

Prompt: What would you report for `Cc1ncc(CN2CC=C(c3ncccc3F)CC2)c(N)n1` ?
Response: 69

Prompt: What would you report for `Cc1ncc(CN2CC=C(c3ccccn3)CC2)c(C)n1` ?
Response: 70

Prompt: What would you report for `Cc1cncc(C2=CCN(Cc3cnc(C)nc3N)CC2)c1` ?
Response: 60

Prompt: What would you report for Cc1ncc(CN2CCC(c3cccnc3)CC2C)c(N)n1 (stereo not shown) ?
Response: 49

Prompt: What would you report for `Nc1nc(C2CC2)ncc1CN1CC=C(c2cccnc2)CC1` ?
Response: 58

Prompt: What would you report for `CCc1ncc(CN2CCC(c3ccccn3)CC2)c(N)n1` ?
Response: 101
